- test-target: T1, hPD-1 (Sino Biological Inc., Catalog No.: 10377-H03H-B) (human, UniProt Q15116 25-167)
- T1 construct: Bought protein; also called human PD-1; purified hPD-1
- T1 sequence (Q15116 25-167): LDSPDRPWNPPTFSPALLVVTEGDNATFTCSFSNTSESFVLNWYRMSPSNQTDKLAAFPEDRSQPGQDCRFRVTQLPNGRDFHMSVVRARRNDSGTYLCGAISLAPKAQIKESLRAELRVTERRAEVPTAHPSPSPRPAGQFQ
- test-description: BLI (Octet) as in Example 4, biotinylated hPD-1 on streptavidin biosensor
property-name: pKd
By convention, pKd is the negative base-10 log of a molar concentration.

Data request, read-out pKd, for CL1 VH (SEQ ID NO: 7) / CL2 VL (SEQ ID NO: 38), IgG4 (antibody, V domains shown, Form IgG4) VH: QVQLVQSGVEVKKPGASVKVSCKASGYTFTNYYMYWVRQAPGQGLEWMGGINPSNGGTNFNEKFKNRVTLTTDSSTTTAYMELKSLQFDDTAVYYCAARDYRLDMGFEFWGQGTTVTVSS VL: EIVLTQSPATLSLSPGERATLSCRASKGVSTSGYSYLHWYQQKPGQAPRLLIYLASYLESGVPARFSGSGSGTDFTLTISSLEPEDFAVYYCQHSYGLPLTFGGGTKVEIK
9.72
